These measurements were taken from ChEMBL document CHEMBL3808307.

Below, each of the molecules is paired with its reported pIC50 value.
- tested-system: Metallo-beta-lactamase type 2 (Klebsiella pneumoniae, UniProt C7C422)
- Sequence (C7C422 whole entry): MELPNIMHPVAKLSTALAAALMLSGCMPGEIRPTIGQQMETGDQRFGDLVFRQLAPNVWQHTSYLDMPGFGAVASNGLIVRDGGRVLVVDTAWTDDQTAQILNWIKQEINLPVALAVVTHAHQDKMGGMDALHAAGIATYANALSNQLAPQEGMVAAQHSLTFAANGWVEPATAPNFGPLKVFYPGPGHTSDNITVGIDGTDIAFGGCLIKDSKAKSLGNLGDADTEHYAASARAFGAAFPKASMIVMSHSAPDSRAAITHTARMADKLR
- assay-comment: Inhibition of Klebsiella pneumoniae metallo-beta-lactamase NDM-1 expressed in Escherichia coli BL21(DE3) cells preincubated for 60 min followed by addition of cefazolin as substrate by spectrometry method
Lab note: report pIC50 as minus log10 of the concentration in molar units, number only.

### Prompt Write down pIC50 measured for item Nc1ccccc1-c1nnc(SCC(=O)Nc2ccccc2)[nH]1
### Response 6.48

### Prompt Write down pIC50 measured for item Cc1ccccc1NC(=O)CSc1nnc(-c2ccccc2)[nH]1
### Response 6.72

### Prompt Write down pIC50 measured for item CCc1ccccc1NC(=O)CSc1nnc(-c2ccccc2)[nH]1
### Response 6.00

### Prompt Write down pIC50 measured for item O=C(CSc1nnc(-c2ccccc2)[nH]1)Nc1ccccc1
### Response 6.77

### Prompt Write down pIC50 measured for item CCc1ccccc1NC(=O)CSc1nnc(-c2ccc(O)cc2)[nH]1
### Response 5.82
